Attribution: paper PMC10397247

subject-of-test: T1, APC9319-AA
T1 chain: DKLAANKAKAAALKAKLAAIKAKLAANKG
test-method-notes: two-hybrid library CCmax;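 also: natural log of median RNA to DNA barcode read ratio; higher means stronger binding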
condition-details: mean of both orientations
endpoint: interaction score

binder	endpoint-value
DEIAALKAKIAALEAKIAALEAKNAALEG [4H807-AA]	-1.71
DKAAALKAELAAEEAENAALEAKNAALKG [APC3645-AA]	-1.55
DELAANEAKLAANKAKLAAIKAELAAIEG [APC8910-AA]	-2.07
DKLAAIKAENAALEAKAAALKAENAALEG [APC1434-AA]	-1.75
DEIAALKAENAALKAEIAALKAENAALKG [4H716-AA]	-1.79
DELAAEEAKLAAIKAELAAIEAELAANEG [APC6108-AA]	-1.1
DEIAALKAENAALKAENAALKAKIAALEG [4H733-AA]	-2.02
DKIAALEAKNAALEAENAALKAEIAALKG [4H2458-AA]	-2.07
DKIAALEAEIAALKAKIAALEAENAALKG [4H2148-AA]	-1.42
DENAALEAEAAALEAELAAEEAENAALEG [APC4264-AA]	-1.52
DEAAALEAENAALEAELAAIEAKNAALKG [APC2405-AA]	-1.81
DKLAAIKAELAAIEAKLAAIKAKNAALKG [APC1015-AA]	-1.82
DKNAALKAKAAALKAELAANEAKAAALKG [APC5383-AA]	-2.03
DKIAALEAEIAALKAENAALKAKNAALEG [4H2143-AA]	-1.6
